- System: ATP;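 note: ATP exposure 15 min at 22 °C before imaging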
- Test method notes: switch fluorescence ratio, 500 uM ATP over buffer (Cy3 cluster intensity, sum of 5 cycles each) (fold (ratio)); higher = stronger signal-on switching upon ATP binding; sequences stand for … in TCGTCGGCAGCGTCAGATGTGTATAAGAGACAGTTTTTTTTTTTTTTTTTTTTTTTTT…TC
- Cond: aptamer strand: ATP DNA aptamer (quencher-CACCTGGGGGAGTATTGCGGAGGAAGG + anchor), 100 nM annealed; ATP concentration: 500 uM
Test readout: switch fluorescence ratio

{"Sequence record": "TGGTTACAAA", "Test result": 0.997}
{"Sequence record": "ATAGGAATGG", "Test result": 1.02}
{"Sequence record": "GATTAAATAG", "Test result": 0.999}
{"Sequence record": "CGGTTTGGCA", "Test result": 0.992}
{"Sequence record": "TAAGCTGTTA", "Test result": 0.981}
{"Sequence record": "GCATTGGTTT", "Test result": 0.982}
{"Sequence record": "TTTTCATGAG", "Test result": 1.01}
{"Sequence record": "AAGAGCGAAG", "Test result": 1.01}
{"Sequence record": "TTGATTATCC", "Test result": 0.99}
{"Sequence record": "CTATGATCTG", "Test result": 0.989}
{"Sequence record": "TATCATGGGG", "Test result": 0.996}
{"Sequence record": "CATGATAGGT", "Test result": 0.975}
{"Sequence record": "AAATTTGAAG", "Test result": 1.02}
{"Sequence record": "TTGGGAGTGT", "Test result": 0.994}
{"Sequence record": "TAGTAATTTG", "Test result": 1.01}
{"Sequence record": "GTTAGGATGG", "Test result": 1.01}
{"Sequence record": "GAGGTATTGG", "Test result": 1.01}
{"Sequence record": "TGGGGTATGT", "Test result": 1}
{"Sequence record": "TAAGGGGTAC", "Test result": 1}
{"Sequence record": "TTTGCATGCT", "Test result": 1.02}
{"Sequence record": "ATCAGGTACG", "Test result": 1.02}
{"Sequence record": "TAGTTAATTG", "Test result": 0.987}
{"Sequence record": "ACATGTTGCC", "Test result": 1.02}
{"Sequence record": "ATAGGGGCTT", "Test result": 0.999}
{"Sequence record": "GATAATCGAG", "Test result": 1.02}
{"Sequence record": "GTTGTCCTTG", "Test result": 1.01}
{"Sequence record": "AGTGGGGATG", "Test result": 1.01}
{"Sequence record": "ATCATTAGGA", "Test result": 0.992}
{"Sequence record": "TTTAAAACGG", "Test result": 1.01}
{"Sequence record": "GGGGCTGGTT", "Test result": 0.99}
{"Sequence record": "TACAATTTTG", "Test result": 1.01}
{"Sequence record": "TTGCGAATGT", "Test result": 0.997}
{"Sequence record": "CGGGGTAGTG", "Test result": 0.999}
{"Sequence record": "CAGCTCTGTT", "Test result": 0.984}
{"Sequence record": "GGGGGGTCTA", "Test result": 1.02}
{"Sequence record": "TAGTGGCAGC", "Test result": 0.98}
{"Sequence record": "GTTTTTCAAG", "Test result": 0.975}
{"Sequence record": "GGTTTGGATC", "Test result": 1.02}
{"Sequence record": "CGCTGAGTTT", "Test result": 0.993}
{"Sequence record": "TAAATCGTAG", "Test result": 0.991}
{"Sequence record": "ACTTGATTTT", "Test result": 1.02}
{"Sequence record": "AGGACGAGGG", "Test result": 0.983}
{"Sequence record": "GGGAGCGCGG", "Test result": 0.994}
{"Sequence record": "GAGTATAATA", "Test result": 0.997}
{"Sequence record": "TAGGGGGTCG", "Test result": 0.971}
{"Sequence record": "GTCAATTGGA", "Test result": 0.992}
{"Sequence record": "TGTGATTTTT", "Test result": 1.01}
{"Sequence record": "GTGGTGTCGT", "Test result": 0.984}
{"Sequence record": "ATCGGGGAGA", "Test result": 0.997}
{"Sequence record": "AAAGGCCCGA", "Test result": 1.01}
{"Sequence record": "TAGGTCCCGG", "Test result": 0.996}
{"Sequence record": "ATGGGCTAGA", "Test result": 0.973}
{"Sequence record": "AAATGAGCGG", "Test result": 0.982}
{"Sequence record": "ATGCATTGCG", "Test result": 0.998}
{"Sequence record": "CACATTTTCA", "Test result": 1.01}
